Tested on: WHIM2 (cells of a triple-negative basal-like breast cancer xenograft)
Assay: cell viability (% of vehicle); higher = less cytotoxic;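 further: PDX cells carrying CMV promoter-driven luciferase, viability read as total photon flux per second by IVIS imaging following D-luciferin, vehicle control 0.1% DMSO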
Conditions: 10 µM; 72 h
Quick rule for you: cell viability under 90 gets Y, anything else gets N.

>>> discretelabel("CCNC1CC(C)S(=O)(=O)c2sc(S(N)(=O)=O)cc21.Cl (stereo not given) [Dorzolamide HCl]")
"N"
>>> discretelabel("CCN(CC)CCNC(=O)c1c(C)[nH]c(C=C2C(=O)Nc3ccc(F)cc32)c1C")
"N"
>>> discretelabel("Br.CN1CCCC1Cc1c[nH]c2ccc(CCS(=O)(=O)c3ccccc3)cc12 (stereo not given)")
"Y"
>>> discretelabel("CCCN1CCCCC1C(=O)Nc1c(C)cccc1C.Cl (stereo not given) [Ropivacaine HCl]")
"N"
>>> discretelabel("CNCC(O)C(O)C(O)C(O)CO (stereo not given)")
"Y"

---

Entries annotated with measured cell viability
Tested on: HCI13 (cells of an ER-positive luminal breast cancer xenograft)
Test: cell viability (% of vehicle); higher = less cytotoxic
Settings: 10 µM; 72 h
readoutKind: cell viability

>>> numericvalue("Cc1cc(C2CCCCC2)n(O)c(=O)c1.NCCO")
59.3
>>> numericvalue("NCCCCCC(=O)O")
104
>>> numericvalue("CC1(C)SC2C(NC(=O)C(NC(=O)N3CCNC3=O)c3ccccc3)C(=O)N2C1C(=O)[O-].[Na+] (stereo not drawn) [Azlocillin sodium salt]")
76.5
>>> numericvalue("O=c1ccn(C2OC(CO)C(O)C2O)c(=O)[nH]1 (stereo not drawn)")
103
>>> numericvalue("CCCc1nn(C)c2c(=O)nc(-c3cc(S(=O)(=O)N4CCN(C)CC4)ccc3OCC)[nH]c12.O=C(O)CC(O)(CC(=O)O)C(=O)O [Sildenafil Citrate]")
130
>>> numericvalue("CC(C)Cc1ccc(C(C)C(=O)O)cc1 (stereo not drawn)")
133
>>> numericvalue("CCOC(=O)C1=CC(OC(CC)CC)C(NC(C)=O)C(N)C1 (stereo not drawn)")
99.2
>>> numericvalue("CN1CCN(C2=c3ccccc3=Nc3ccc(Cl)cc3N2)CC1")
106

---

Test system: HCI13
Test: cell viability (% of vehicle); higher = less cytotoxic
Conditions: 10 µM; 72 h
Here the recorded cell viability is given for each entry.
readoutKind: cell viability

>>> numericvalue("Nc1nc(=O)c2c([nH]1)NCC(CNc1ccc(C(=O)NC(CCC(=O)[O-])C(=O)[O-])cc1)N2C=O.O.O.O.O.O.[Ca+2] (stereo not drawn) [Leucovorin Calcium]")
108
>>> numericvalue("O=C([C@H](CCC/N=C(N)/N)NS(=O)(C1=C2NC[C@H](C)CC2=CC=C1)=O)N3[C@@H](C(O)=O)C[C@H](C)CC3 [Argatroban]")
95.2
>>> numericvalue("CCCc1nc(C)c2c(=O)nc(-c3cc(S(=O)(=O)N4CCN(CC)CC4)ccc3OCC)[nH]n12 [Vardenafil]")
102

---

System: HCI13
Assay: cell viability (% of vehicle); higher = less cytotoxic
Conditions: 10 µM; 72 h
readoutKind: cell viability

>>> result("COC(=O)C1=C(C)NC(C)=C(C(=O)OC2CCCN(Cc3ccccc3)C2)C1c1cccc([N+](=O)[O-])c1.Cl (centres undefined) [Benidipine HCl]")
36.2
>>> result("CCN1CCN(Cc2ccc(Nc3ncc(F)c(-c4cc(F)c5nc(C)n(C(C)C)c5c4)n3)nc2)CC1.CS(=O)(=O)O")
71.6
>>> result("CN(C)CCOC(C)(c1ccccc1)c1ccccn1.O=C(O)CCC(=O)O (centres undefined) [Doxylamine Succinate]")
90.5
>>> result("COc1ccc(-c2ccc3cc(C(=O)O)ccc3c2)cc1C12CC3CC(CC(C3)C1)C2 [Adapalene]")
139
